experiment: Clearance in Sprague-Dawley rat at 5 mg/kg, iv; format: ADME, organism-based; conditions: in vivo
measurement_label: clearance (L/h/kg)
Give bare numbers, in L/h/kg.

{"chemical_smiles": "COc1cc(N2CCN(C)CC2)ccc1Nc1ncc2c(C)cc(=O)n([C@H]3CC[C@@H](NC(=O)C4CCCCC4)CC3)c2n1", "clearance, L/h/kg": 0.946}

The record that follows has no clearance shown yet.
Entry "COc1cc(N2CCN(C)CC2)ccc1Nc1ncc2cc(C)c(=O)n([C@H]3CC[C@@H](NC(=O)C4CCCCC4)CC3)c2n1" has what clearance?
0.337

====

biological target: MAP/microtubule affinity-regulating kinase 3 (Homo sapiens); experiment: Binding affinity to wild-type human full length MARK3 (M1 to L729 residues) expressed in bacterial expression system by measuring active site-directed competition binding based Kinomescan method
Sequence (P27448 whole entry, the tested form may be a part): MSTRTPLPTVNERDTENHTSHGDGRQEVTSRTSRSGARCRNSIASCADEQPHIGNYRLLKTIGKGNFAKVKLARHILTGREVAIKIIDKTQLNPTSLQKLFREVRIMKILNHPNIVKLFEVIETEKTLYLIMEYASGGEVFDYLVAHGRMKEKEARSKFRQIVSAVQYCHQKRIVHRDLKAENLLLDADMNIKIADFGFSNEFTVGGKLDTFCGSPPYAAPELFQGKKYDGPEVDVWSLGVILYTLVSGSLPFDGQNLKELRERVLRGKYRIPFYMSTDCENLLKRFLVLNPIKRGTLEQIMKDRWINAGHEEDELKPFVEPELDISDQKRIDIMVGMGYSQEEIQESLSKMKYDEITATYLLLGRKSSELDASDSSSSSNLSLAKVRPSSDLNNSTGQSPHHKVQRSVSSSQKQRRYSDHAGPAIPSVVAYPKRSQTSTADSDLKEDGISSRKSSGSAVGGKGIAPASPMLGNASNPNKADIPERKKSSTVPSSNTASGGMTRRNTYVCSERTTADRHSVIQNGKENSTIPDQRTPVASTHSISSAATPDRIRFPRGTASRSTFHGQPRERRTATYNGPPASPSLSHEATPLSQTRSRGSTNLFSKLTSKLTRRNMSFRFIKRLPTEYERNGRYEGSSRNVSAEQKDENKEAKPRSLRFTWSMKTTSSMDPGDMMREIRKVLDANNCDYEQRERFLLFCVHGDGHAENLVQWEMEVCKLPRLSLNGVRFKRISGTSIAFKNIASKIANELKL
measurement_label: Kd (nM)
Give bare numbers, in nM.

What value of Kd has been reported for the following molecule? "COc1cc(N2CCN(C)CC2)ccc1Nc1ncc2c(C)cc(=O)n([C@H]3CC[C@@H](NC(=O)C4CCCCC4)CC3)c2n1"
11

====

biological target: Dual specificity protein kinase TTK (Homo sapiens); experiment: Binding affinity to wild-type human partial length TTK (N505 to V798 residues) expressed in bacterial expression system by active site-directed competition binding based Kinomescan method
measurement_label: pKd
Answers are plain numbers, as −log10 of the molar value.

{"chemical_smiles": "COc1cc(N2CCN(C)CC2)ccc1Nc1ncc2c(C)cc(=O)n([C@H]3CC[C@@H](NC(=O)C4CC4)CC3)c2n1", "target_under_test": "Dual specificity protein kinase TTK (Homo sapiens)", "pKd": 9.39}

// input: 3 compounds below; output: pKd for each
1. COc1cc(N2CCN(C)CC2)ccc1Nc1ncc2c(C)cc(=O)n([C@H]3CC[C@@H](NC(=O)C4CCCC4)CC3)c2n1
2. CCC(=O)N1CCC[C@@H](n2c(=O)cc(C)c3cnc(Nc4ccc(N5CCN(C)CC5)cc4OC)nc32)C1
3. CCC(=O)N[C@H]1CC[C@@H](n2c(=O)c(C)cc3cnc(Nc4ccc(N5CCN(C)CC5)cc4OC)nc32)CC1

1. 9.92
2. 6.60
3. 9.54

// batch mode: one pKd value per listed entry
1. COc1cc(N2CCN(C)CC2)ccc1Nc1ncc2c(C)cc(=O)n([C@H]3CC[C@@H](NC(=O)C4CCCCC4)CC3)c2n1
2. COc1cc(N2CCN(C)CC2)ccc1Nc1ncc2c(C)cc(=O)n([C@H]3CC[C@@H](NC(=O)c4ccccc4)CC3)c2n1
3. CCC(=O)N[C@H]1CC[C@@H](n2c(=O)cc(C)c3cnc(Nc4ccc(N5CCN(C)CC5)cc4OC)nc32)CC1

9.82
9.52
9.15

====

Biological target: Dual specificity protein kinase TTK (Homo sapiens, UniProt P33981)
Sequence (P33981 whole entry): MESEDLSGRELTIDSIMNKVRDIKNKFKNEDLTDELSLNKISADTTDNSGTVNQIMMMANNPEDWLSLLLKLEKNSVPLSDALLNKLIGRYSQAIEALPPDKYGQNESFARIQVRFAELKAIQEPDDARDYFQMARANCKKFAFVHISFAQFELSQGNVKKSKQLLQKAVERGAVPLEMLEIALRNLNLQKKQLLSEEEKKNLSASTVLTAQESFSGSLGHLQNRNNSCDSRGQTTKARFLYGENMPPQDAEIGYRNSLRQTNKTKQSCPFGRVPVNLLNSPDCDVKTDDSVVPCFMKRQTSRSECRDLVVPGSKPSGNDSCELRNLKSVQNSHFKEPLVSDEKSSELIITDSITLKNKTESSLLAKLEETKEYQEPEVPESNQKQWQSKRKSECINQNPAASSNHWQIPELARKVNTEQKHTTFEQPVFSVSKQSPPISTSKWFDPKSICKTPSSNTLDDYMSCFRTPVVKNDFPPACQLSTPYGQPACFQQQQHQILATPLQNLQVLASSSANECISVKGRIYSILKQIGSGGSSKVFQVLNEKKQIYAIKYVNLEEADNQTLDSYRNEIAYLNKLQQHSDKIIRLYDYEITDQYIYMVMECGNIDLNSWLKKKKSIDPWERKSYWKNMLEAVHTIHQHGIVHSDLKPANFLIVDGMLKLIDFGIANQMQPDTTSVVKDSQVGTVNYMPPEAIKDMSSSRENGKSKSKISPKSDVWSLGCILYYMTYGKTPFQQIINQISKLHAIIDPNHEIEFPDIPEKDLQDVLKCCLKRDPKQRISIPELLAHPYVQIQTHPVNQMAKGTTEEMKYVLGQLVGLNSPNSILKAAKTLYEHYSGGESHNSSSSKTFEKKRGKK
Assay: Binding affinity to wild-type human partial length TTK (N505 to V798 residues) expressed in bacterial expression system by active site-directed competition binding based Kinomescan method
Mark Y only for Kd values smaller than 4 nM; exact matches and larger values are N.

Use these answered entries as a reference point.
{"chemical_smiles": "COc1cc(N2CCN(C)CC2)ccc1Nc1ncc2c(C)cc(=O)n([C@H]3CC[C@@H](NC(=O)C(C)(C)C)CC3)c2n1", "qualitative_label": "Y"}
{"chemical_smiles": "CCC(=O)N1CCC[C@H](n2c(=O)cc(C)c3cnc(Nc4ccc(N5CCN(C)CC5)cc4OC)nc32)C1", "qualitative_label": "N"}
{"chemical_smiles": "COc1cc(N2CCN(C)CC2)ccc1Nc1ncc2c(C)cc(=O)n([C@H]3CC[C@@H](NC(=O)C(C)C)CC3)c2n1", "qualitative_label": "Y"}
{"chemical_smiles": "CCC(=O)N[C@H]1CC[C@@H](n2c(=O)cc(C)c3cnc(Nc4ccc(N5CCN(C)CC5)c(OC)c4)nc32)CC1", "qualitative_label": "N"}
{"chemical_smiles": "CCC(=O)N[C@H]1CC[C@@H](n2c(=O)cc(C)c3cnc(Nc4ccc(N5CCN(C)CC5)cc4C)nc32)CC1", "qualitative_label": "Y"}

Identify whether the compound "CCC(=O)N[C@H]1CC[C@@H](n2c(=O)cc(-c3ccccc3)c3cnc(Nc4ccc(N5CCN(C)CC5)cc4OC)nc32)CC1" records Kd below 4 nM.
N

State whether 4 nM exceeds Kd recorded for "CCC(=O)N1CC[C@H](n2c(=O)cc(C)c3cnc(Nc4ccc(N5CCN(C)CC5)cc4OC)nc32)C1" .
N

Does the reported Kd of "COc1cc(N2CCN(C)CC2)ccc1Nc1ncc2c(C)cc(=O)n([C@H]3CC[C@@H](NCC4CC4)CC3)c2n1" stay below 4 nM?
N

====

biological target: Phosphatidylinositol 3-kinase C2 domain-containing subunit gamma (Homo sapiens, UniProt O75747); experiment: Binding affinity to human partial length PIK3C2G (M1 to I1446 residues) expressed in mammalian expression system by active site-directed competition binding based Kinomescan method
Sequence (O75747 whole entry, the tested form may be a part): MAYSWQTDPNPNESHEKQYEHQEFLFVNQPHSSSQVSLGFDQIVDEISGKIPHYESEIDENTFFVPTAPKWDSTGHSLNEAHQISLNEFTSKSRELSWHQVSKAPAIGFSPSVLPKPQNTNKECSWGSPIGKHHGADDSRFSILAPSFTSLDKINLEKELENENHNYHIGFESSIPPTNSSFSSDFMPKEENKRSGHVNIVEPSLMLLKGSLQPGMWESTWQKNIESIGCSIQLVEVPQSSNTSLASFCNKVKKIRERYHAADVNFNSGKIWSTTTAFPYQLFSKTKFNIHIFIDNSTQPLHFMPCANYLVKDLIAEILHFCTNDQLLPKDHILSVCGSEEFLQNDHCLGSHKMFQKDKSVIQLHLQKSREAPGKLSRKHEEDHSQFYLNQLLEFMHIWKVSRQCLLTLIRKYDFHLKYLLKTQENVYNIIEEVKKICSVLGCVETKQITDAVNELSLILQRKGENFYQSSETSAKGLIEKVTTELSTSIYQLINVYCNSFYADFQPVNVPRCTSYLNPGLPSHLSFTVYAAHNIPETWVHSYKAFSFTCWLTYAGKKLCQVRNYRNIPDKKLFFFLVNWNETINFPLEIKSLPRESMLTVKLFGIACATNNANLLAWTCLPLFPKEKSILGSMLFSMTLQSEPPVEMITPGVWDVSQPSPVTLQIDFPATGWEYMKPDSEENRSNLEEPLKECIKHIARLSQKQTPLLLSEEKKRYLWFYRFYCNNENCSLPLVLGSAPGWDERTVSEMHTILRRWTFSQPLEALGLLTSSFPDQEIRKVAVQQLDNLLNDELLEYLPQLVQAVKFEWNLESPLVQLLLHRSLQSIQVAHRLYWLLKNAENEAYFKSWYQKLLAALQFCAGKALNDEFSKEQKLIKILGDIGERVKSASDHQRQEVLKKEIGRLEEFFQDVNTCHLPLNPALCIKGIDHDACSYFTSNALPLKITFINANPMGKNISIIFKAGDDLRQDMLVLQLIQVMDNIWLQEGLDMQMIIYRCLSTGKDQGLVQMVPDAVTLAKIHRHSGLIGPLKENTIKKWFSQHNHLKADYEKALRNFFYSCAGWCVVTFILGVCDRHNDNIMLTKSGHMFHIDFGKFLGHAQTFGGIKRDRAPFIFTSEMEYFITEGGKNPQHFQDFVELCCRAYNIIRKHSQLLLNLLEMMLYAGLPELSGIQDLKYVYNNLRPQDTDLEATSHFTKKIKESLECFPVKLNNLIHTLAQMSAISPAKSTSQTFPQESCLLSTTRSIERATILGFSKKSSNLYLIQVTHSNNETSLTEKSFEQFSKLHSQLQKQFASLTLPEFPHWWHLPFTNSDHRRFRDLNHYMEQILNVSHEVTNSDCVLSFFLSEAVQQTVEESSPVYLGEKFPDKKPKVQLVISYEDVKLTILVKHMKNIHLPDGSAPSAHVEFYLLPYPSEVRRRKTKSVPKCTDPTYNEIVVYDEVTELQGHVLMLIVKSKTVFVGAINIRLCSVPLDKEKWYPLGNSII
pKd: −log10 of the molar value.
measurement_label: pKd

Dear colleague, I am looking for the recorded pKd of the following compound: "COc1cc(N2CCN(C)CC2)ccc1Nc1ncc2c(C)cc(=O)n([C@H]3CC[C@@H](NC(=O)C4CCCCC4)CC3)c2n1"
< 6.00

====

target: Death-associated protein kinase 3 (Homo sapiens, UniProt O43293); test: Binding affinity to wild-type human partial length DAPK3 (M1 to A277 residues) expressed in bacterial expression system by measuring active site-directed competition binding based Kinomescan method
Sequence (O43293 whole entry, the tested form may be a part): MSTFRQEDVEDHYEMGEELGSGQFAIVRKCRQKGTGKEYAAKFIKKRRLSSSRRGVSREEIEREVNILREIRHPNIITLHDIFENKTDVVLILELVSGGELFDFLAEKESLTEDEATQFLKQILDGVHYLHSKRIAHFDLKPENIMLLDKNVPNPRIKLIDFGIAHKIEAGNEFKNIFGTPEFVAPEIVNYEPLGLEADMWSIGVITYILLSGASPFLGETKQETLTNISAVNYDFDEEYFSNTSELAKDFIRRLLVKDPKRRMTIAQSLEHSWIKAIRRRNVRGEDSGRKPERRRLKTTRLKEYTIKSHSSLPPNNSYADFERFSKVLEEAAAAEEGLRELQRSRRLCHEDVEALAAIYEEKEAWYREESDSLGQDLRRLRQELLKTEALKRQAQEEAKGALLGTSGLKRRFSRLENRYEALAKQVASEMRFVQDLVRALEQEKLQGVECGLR
measurement_label: Kd
Include the unit after the number when you answer.

Given the entry "COc1cc(N2CCN(C)CC2)ccc1Nc1ncc2c(C)cc(=O)n([C@H]3CC[C@@H](NC(=O)C4CCCCC4)CC3)c2n1" , report its measured Kd.
13 nM

====

test: Half life in Sprague-Dawley rat at 25 mg/kg, po; type: ADME, organism-based; conditions: in vivo
For each of the compounds below, state its half-life.
Answers are plain numbers, in h.

{"chemical_smiles": "COc1cc(N2CCN(C)CC2)ccc1Nc1ncc2cc(C)c(=O)n([C@H]3CC[C@@H](NC(=O)C4CCCCC4)CC3)c2n1", "readout_value": 7.62}

The record that follows has no half-life shown yet.
What measured half-life goes with "COc1cc(N2CCN(C)CC2)ccc1Nc1ncc2c(C)cc(=O)n([C@H]3CC[C@@H](NC(=O)C4CCCCC4)CC3)c2n1" ?
6.01

====

target: Interleukin-1 receptor-associated kinase 1 (Homo sapiens); assay: Binding affinity to wild-type human partial length IRAK1 (R194 to S712 residues) expressed in mammalian expression system by active site-directed competition binding based Kinomescan method
Sequence (P51617 whole entry, the tested form may be a part): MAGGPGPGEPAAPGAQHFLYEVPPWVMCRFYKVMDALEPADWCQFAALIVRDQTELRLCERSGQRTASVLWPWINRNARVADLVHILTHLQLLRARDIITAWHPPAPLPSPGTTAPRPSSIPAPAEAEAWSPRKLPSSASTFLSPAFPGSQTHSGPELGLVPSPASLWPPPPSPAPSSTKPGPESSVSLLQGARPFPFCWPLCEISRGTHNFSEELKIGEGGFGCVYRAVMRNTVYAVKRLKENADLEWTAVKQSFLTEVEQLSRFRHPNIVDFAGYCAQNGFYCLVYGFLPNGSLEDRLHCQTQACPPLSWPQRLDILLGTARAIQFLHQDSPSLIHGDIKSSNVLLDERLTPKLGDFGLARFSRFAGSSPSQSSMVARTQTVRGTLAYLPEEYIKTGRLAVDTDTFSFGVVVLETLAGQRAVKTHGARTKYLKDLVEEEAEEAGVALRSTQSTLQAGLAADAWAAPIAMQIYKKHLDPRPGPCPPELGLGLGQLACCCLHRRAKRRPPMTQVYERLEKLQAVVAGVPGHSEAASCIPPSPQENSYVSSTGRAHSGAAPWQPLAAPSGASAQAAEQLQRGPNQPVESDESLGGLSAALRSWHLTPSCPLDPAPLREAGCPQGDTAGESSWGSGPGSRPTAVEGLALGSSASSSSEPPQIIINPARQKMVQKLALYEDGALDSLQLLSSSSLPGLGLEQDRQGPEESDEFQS
pKd: −log10 of the molar value.
measurement_label: pKd

So what does the record say about pKd for "COc1cc(N2CCN(C)CC2)ccc1Nc1ncc2c(C)cc(=O)n([C@H]3CC[C@@H](NC(=O)C4CCCCC4)CC3)c2n1" ?
< 6.00

====

molecular target: Dual specificity protein kinase TTK (Homo sapiens); experiment: Inhibition of recombinant full-length human TTK using MBP as substrate incubated for 40 mins in presence of [gamma33P]ATP by scintillation counting based radiometry assay relative to control
I'd be grateful if you could share measured IC50 for these entries.
Respond with a number, then the unit of measure.

Sample records with IC50:
{"chemical_smiles": "COc1cc(N2CCN(C)CC2)ccc1Nc1ncc2cc(C)c(=O)n([C@H]3CC[C@@H](NC(=O)C4CCCC4)CC3)c2n1", "IC50": "0.011 µM"}
{"chemical_smiles": "COc1cc(N2CCN(C)CC2)ccc1Nc1ncc2cc(C)c(=O)n([C@H]3CC[C@@H](NC(=O)C4CCCCC4)CC3)c2n1", "IC50": "0.02 µM"}
{"chemical_smiles": "CCC(=O)N[C@H]1CC[C@@H](n2c(=O)cc(C3CC3)c3cnc(Nc4ccc(N5CCN(C)CC5)cc4OC)nc32)CC1", "IC50": "0.05 µM"}

Would you be so kind as to report IC50 for each listed record?
1. COc1cc(N2CCN(C)CC2)ccc1Nc1ncc2c(C)cc(=O)n([C@H]3CC[C@@H](NC(=O)C4CCCCC4)CC3)c2n1
2. COc1cc(N2CCN(C)CC2)ccc1Nc1ncc2c(C)cc(=O)n([C@H]3CC[C@@H](NC(=O)C4CCCC4)CC3)c2n1

0.023 µM
0.019 µM
